STUDY TARGET: Alpha-1B adrenergic receptor (Rattus norvegicus, UniProt P15823)
Sequence (P15823 whole entry): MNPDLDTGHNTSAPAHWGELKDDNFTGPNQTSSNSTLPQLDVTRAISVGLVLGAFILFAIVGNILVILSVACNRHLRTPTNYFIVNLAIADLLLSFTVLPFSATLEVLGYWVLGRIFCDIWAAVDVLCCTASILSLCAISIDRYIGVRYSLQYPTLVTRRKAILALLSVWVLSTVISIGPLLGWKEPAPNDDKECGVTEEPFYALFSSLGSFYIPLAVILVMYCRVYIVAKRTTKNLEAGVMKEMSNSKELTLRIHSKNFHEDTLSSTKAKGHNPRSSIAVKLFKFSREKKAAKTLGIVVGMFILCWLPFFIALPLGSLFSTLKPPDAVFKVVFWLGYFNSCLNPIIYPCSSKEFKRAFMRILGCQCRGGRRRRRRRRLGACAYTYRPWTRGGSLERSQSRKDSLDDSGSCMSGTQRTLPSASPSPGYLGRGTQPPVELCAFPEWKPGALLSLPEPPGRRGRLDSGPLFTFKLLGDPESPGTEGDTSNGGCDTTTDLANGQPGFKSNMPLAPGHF
EXPERIMENTAL DETAILS: Antagonist activity at alpha1B-adrenoceptor in Wistar rat spleen assessed as inhibition of phenylphrine-induced contractions measured after 30 mins in presence of (+/-)-propranolol hydrochloride
CONDITIONS USED: 0.5 h
Overview of recorded pKb for various compounds

• CCOc1ccccc1N1CCN(CCc2cccc(OC)c2)CC1 = 8.13

Using the record for `CC(C)Oc1ccccc1N1CCN(CCc2ccc3c(c2)OCO3)CC1` , report its pKb.
8.03

Which pKb value is on record for `COc1ccc(CCN2CCN(c3ccccc3OC(C)C)CC2)cc1OC` ?
8.74

Reported pKb, compound `CCOc1ccccc1N1CCN(CCc2ccc(OC)c(OC)c2)CC1` : ____
8.89

Reported pKb, compound `CC(C)Oc1ccccc1N1CCN(CCc2ccccc2)CC1` : ____
7.94

For the compound shown here, `COc1ccccc1N1CCN(CCc2ccc3c(c2)OCO3)CC1` , give the reported pKb.
8.11

###

STUDY TARGET: Alpha-1D adrenergic receptor (Rattus norvegicus)
EXPERIMENTAL DETAILS: Antagonist activity at alpha1D-adrenoceptor in Wistar rat thoracic aorta assessed as inhibition of (-)-NE-induced contractions preincubated for 60 mins before (-)-NE challenge measured after 1 hr in presence of normetanephrine hydrochloride and (+/-)-propranolol hydrochloride
PARAMETER MEASURED: pKb
// return a plain number; no unit text

Check out these entries, answers already filled in.
- CCOc1ccccc1N1CCN(CCc2ccc(OC)cc2)CC1: 8.23
- CC(C)Oc1ccccc1N1CCN(CCc2ccc3c(c2)OCO3)CC1: 8.33
- COc1cccc(CCN2CCN(c3ccccc3OC(C)C)CC2)c1: 9.46
- CC(C)Oc1ccccc1N1CCN(CCc2ccccc2)CC1: 8.59
- CCOc1ccccc1N1CCN(CCc2ccc3c(c2)OCO3)CC1: 8.84
- COc1ccccc1N1CCN(CCc2ccccc2)CC1: 8.5

Consider the compound `COc1ccc(CCN2CCN(c3ccccc3OC(C)C)CC2)cc1OC` and give its measured pKb.
9.12

Endpoint output: pKb of `CCOc1ccccc1N1CCN(CCc2cccc(OC)c2)CC1` . Value?
8.11

# input compound: `COc1ccccc1N1CCN(CCc2ccc3c(c2)OCO3)CC1` ; wanted: its pKb
8.57

Report pKb for `CCOc1ccccc1N1CCN(CCc2ccc(OC)c(OC)c2)CC1` please.
8.79

###

STUDY TARGET: Alpha-1D adrenergic receptor (Homo sapiens)
Sequence (P25100 whole entry): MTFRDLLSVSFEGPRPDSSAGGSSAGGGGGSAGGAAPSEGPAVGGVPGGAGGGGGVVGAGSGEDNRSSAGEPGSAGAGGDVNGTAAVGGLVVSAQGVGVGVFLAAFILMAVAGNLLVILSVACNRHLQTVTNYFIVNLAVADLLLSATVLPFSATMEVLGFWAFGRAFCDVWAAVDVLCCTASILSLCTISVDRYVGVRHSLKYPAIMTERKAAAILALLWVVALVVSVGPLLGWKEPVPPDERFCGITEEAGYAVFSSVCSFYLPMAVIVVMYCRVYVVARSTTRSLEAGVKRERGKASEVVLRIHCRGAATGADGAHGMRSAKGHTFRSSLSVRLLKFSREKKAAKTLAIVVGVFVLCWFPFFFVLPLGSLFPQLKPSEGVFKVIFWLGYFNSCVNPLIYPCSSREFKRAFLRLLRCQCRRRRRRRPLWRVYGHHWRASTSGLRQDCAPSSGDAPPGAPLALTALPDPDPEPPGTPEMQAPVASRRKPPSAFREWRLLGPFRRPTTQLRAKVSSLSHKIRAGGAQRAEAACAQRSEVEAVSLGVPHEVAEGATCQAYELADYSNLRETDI
PARAMETER MEASURED: log10 of Ki (log10 of the value in nM)
In our notation, the value equals log10 of Ki in nM.

Below: 5 compounds and their reported log10 of Ki.
- CCOc1ccccc1N1CCN(CCc2ccc3c(c2)OCO3)CC1: 0.18
- COc1ccccc1N1CCN(CCc2ccc3c(c2)OCO3)CC1: 0.10
- CC(C)Oc1ccccc1N1CCN(CCc2ccccc2)CC1: 0.66
- CCOc1ccccc1N1CCN(CCc2ccc(OC)c(OC)c2)CC1: -0.22
- CC(C)Oc1ccccc1N1CCN(CCc2ccc3c(c2)OCO3)CC1: 0.24

# input compound: `CCOc1ccccc1N1CCN(CCc2ccc(OC)cc2)CC1` ; wanted: its log10 of Ki
0.13

Which value of log10 of Ki has been reported for `COc1ccccc1N1CCN(CCc2ccccc2)CC1` in the records?
1.22

What measured log10 of Ki goes with `COc1ccc(CCN2CCN(c3ccccc3OC(C)C)CC2)cc1` ?
0.49

Need log10 of Ki, item `COc1cccc(CCN2CCN(c3ccccc3OC(C)C)CC2)c1`
0.12

Request the reported log10 of Ki associated with `CCOc1ccccc1N1CCN(CCc2cccc(OC)c2)CC1`
0.41

log10 of Ki for `COc1ccc(CCN2CCN(c3ccccc3OC(C)C)CC2)cc1OC` ?
0.13

###

STUDY TARGET: Alpha-1A adrenergic receptor (Homo sapiens)
Sequence (P35348 whole entry): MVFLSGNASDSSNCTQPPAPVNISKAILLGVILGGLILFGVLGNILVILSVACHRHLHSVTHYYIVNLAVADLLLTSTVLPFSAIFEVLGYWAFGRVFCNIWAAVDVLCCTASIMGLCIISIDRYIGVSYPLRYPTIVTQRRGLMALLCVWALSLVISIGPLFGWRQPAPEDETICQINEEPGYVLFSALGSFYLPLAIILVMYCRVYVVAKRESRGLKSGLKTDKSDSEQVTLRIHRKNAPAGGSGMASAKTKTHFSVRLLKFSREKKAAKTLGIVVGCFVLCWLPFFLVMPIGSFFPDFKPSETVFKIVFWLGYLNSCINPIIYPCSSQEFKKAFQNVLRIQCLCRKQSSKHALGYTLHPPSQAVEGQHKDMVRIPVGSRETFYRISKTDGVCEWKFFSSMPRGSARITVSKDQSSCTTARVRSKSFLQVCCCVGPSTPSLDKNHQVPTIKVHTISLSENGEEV
EXPERIMENTAL DETAILS: Displacement of [3H]prazosin from human alpha1A-adrenoceptor expressed in CHO cell membranes measured after 30 mins
Collected pKi values appear next to each entry.
Units for pKi: none; it is -log10 of a concentration expressed in mol/L.

The examples below pair each entry with its known result.
* COc1ccc(CCN2CCN(c3ccccc3OC(C)C)CC2)cc1 | 8.65
* CCOc1ccccc1N1CCN(CCc2ccc3c(c2)OCO3)CC1 | 8.95

Requested field: pKi. Item: `COc1cccc(CCN2CCN(c3ccccc3OC(C)C)CC2)c1`
8.56

What value of pKi has been recorded for this entry: `CCOc1ccccc1N1CCN(CCc2cccc(OC)c2)CC1`
8.53

# pKi lookup, item `CCOc1ccccc1N1CCN(CCc2ccc(OC)cc2)CC1`
8.95

Find the recorded pKi belonging to `COc1ccccc1N1CCN(CCc2ccccc2)CC1` and report it.
7.50

Bench note: what pKi did `COc1ccccc1N1CCN(CCc2ccc3c(c2)OCO3)CC1` show?
8.46

Param item = `CC(C)Oc1ccccc1N1CCN(CCc2ccc3c(c2)OCO3)CC1` ; retrieve measured pKi.
9.41

Consider the molecule shown here: `CCOc1ccccc1N1CCN(CCc2ccc(OC)c(OC)c2)CC1` What is its recorded pKi?
8.68

Recorded pKi of `COc1ccc(CCN2CCN(c3ccccc3OC(C)C)CC2)cc1OC` , please.
8.70

Please look up its pKi: `CC(C)Oc1ccccc1N1CCN(CCc2ccccc2)CC1`
8.30

###

STUDY TARGET: Alpha-1B adrenergic receptor (Homo sapiens)
Sequence (P35368 whole entry): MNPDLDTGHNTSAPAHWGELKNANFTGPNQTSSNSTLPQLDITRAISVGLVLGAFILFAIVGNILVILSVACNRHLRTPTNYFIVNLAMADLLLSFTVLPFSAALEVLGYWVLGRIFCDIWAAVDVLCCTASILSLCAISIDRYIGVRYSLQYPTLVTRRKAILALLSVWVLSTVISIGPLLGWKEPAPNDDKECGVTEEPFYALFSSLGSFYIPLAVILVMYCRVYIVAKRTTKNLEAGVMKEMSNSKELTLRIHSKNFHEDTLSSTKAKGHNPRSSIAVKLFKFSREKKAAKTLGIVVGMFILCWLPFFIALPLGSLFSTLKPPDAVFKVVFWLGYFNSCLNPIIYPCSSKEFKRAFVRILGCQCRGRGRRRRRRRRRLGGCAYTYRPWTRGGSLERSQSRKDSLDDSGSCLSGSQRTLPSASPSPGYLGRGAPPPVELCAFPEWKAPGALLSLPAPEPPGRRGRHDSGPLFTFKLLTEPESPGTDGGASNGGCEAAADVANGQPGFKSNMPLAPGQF
# Lookup of reported Ki keyed by entry
Answer in µM, number only, no unit symbol.

- COc1ccc(CCN2CCN(c3ccccc3OC(C)C)CC2)cc1: 0.0148
- CC(C)Oc1ccccc1N1CCN(CCc2ccc3c(c2)OCO3)CC1: 0.0129
- CCOc1ccccc1N1CCN(CCc2ccc(OC)c(OC)c2)CC1: 0.0158

Give the measured Ki of `COc1ccc(CCN2CCN(c3ccccc3OC(C)C)CC2)cc1OC` .
0.0105

Requested read-out: Ki. Entry: `CCOc1ccccc1N1CCN(CCc2ccc(OC)cc2)CC1`
0.0102

Need Ki of `COc1cccc(CCN2CCN(c3ccccc3OC(C)C)CC2)c1` , thanks.
0.0138

###

STUDY TARGET: Alpha-1B adrenergic receptor (Rattus norvegicus, UniProt P15823)
EXPERIMENTAL DETAILS: Antagonist activity at alpha1B-adrenoceptor in Wistar rat spleen assessed as inhibition of phenylphrine-induced contractions measured after 30 mins in presence of (+/-)-propranolol hydrochloride
CONDITIONS USED: 0.5 h
PARAMETER MEASURED: pKb
Please give the numeric answer without any surrounding text.

- COc1cccc(CCN2CCN(c3ccccc3OC(C)C)CC2)c1: 8.92
- CCOc1ccccc1N1CCN(CCc2ccc(OC)cc2)CC1: 7.91
- CCOc1ccccc1N1CCN(CCc2ccc3c(c2)OCO3)CC1: 8.85

Continue with the compound presented below.
Need pKb, item `COc1ccccc1N1CCN(CCc2ccccc2)CC1`
7.82
